Reported composite z-score is given for each of the following molecules.
test: binders of probe aFGF10 on microarray, primary screen, stem cell growth factor project, biochemical, small-molecule microarray, fluorescence 635/667 (AID 1071); settings: higher = more signal;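 also: score merges 667 nm spot intensity and signal to noise from triplicate slides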
Keep the answer to the number alone.

Query: Please list composite z-score recorded for the molecule C[C@H]1Cc2c(-c3ccccc3)nc3c(c2CO1)CN(CCOc1ccccc1)CC3
Response: 0.739

Query: Please list composite z-score recorded for the molecule COc1ccc(COC(=O)NN=C2C[C@@H](O)[C@@H](O)[C@@H]3[C@@H]4C(=O)N(c5ccc(F)cc5F)C(=O)[C@@H]4CC[C@@H]23)cc1
Response: -0.299

Query: Please list composite z-score recorded for the molecule CCOC(=O)CCN1C(=O)[C@H]2[C@H]3[C@H](O)[C@H](O)CC(=NNC(=O)OCc4ccc(OC)cc4)[C@@H]3CC[C@H]2C1=O
Response: 0.0569

Query: Please list composite z-score recorded for the molecule CC(C)[C@@H](OCc1ccccc1)[C@H](C)C=NOC[C@@H](C)[C@H](OCc1ccccc1)C(C)C
Response: 0.31

Query: Please list composite z-score recorded for the molecule O=C1C2=CC[C@H]3C(=O)N(Cc4ccc5c(c4)OCO5)C(=O)[C@H]3[C@H]2[C@H](O)[C@@H]2O[C@H]12
Response: 0.375

Query: Please list composite z-score recorded for the molecule Cn1cccc1C(O)C1C=CC2C(=O)NC(=O)C2N1Nc1ccccn1 (configuration not stated)
Response: -0.0312

Query: Please list composite z-score recorded for the molecule C[C@@H](c1ccccc1)N1C(=O)[C@H]2[C@H]3[C@H](O)[C@H](O)CC(=NOC[C@@H](O)COCc4ccco4)[C@@H]3CC[C@H]2C1=O
Response: -0.141

* * *

assay: small-molecule binders of probe aNOTCH3, primary screen, biochemical, small-molecule microarray, 635/667 nm fluorescence (AID 1120); details: higher = more signal;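 also: probe is a biotin-tagged antibody raised against NOTCH3 rather than NOTCH3 protein; score merges spot fluorescence near 667 nm with spot signal to noise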
Reported composite z-score is given for each of the following compounds.
Keep the answer to the number alone.

Examples with answers:
[
  {
    "compound": "CCN(CC)c1ccc(N2CC=CC34O[C@@H]5/C=C\\CCC(C)OC(=O)C5[C@H]3C(=O)N(CCCO)[C@@H]4C2=O)cc1 (some centres not stated)",
    "composite z-score": -0.185
  },
  {
    "compound": "COC(=O)[C@@]1(Cc2ccc(F)cc2)[C@@H]2C(=CC(=O)[C@H]2CC(=O)C(=O)N(C)C)CN1C(=O)c1ccccc1",
    "composite z-score": 0.476
  },
  {
    "compound": "CC(CCN1CCc2nc(-c3ccccc3)c(-c3ccccc3)cc2C1)=NO[C@H](C)c1cn([C@@H]2COC[C@H]2O)nn1",
    "composite z-score": 0.0864
  },
  {
    "compound": "COC(=O)CC=C[C@@H](C)[C@@H](C=NO[C@H](C)c1cn([C@@H]2COC[C@H]2O)nn1)OC",
    "composite z-score": -0.0377
  }
]

Query: Please list composite z-score recorded for the compound Cc1ccc(S(=O)(=O)N[C@@H]2COC(=O)[C@H](C)COC(=O)CC=C[C@H]2C)cc1
Response: -0.224

Query: Please list composite z-score recorded for the compound O=C1O[C@@H](c2ccccc2)[C@@H](c2ccccc2)N2[C@@H](c3ccc(OCCO)cc3)[C@]3(C(=O)Nc4ccc(C#CCCO)cc43)[C@@H](C(=O)N3CCCCCCC3)[C@H]12
Response: 1.66

Query: Please list composite z-score recorded for the compound CC(=O)OC[C@H]1O[C@H](CCON=C(C)CCC(=O)OC[C@H]2O[C@H](C#Cc3ccccc3)C=C[C@@H]2Oc2ccc(C)cc2)C=C[C@@H]1OC(C)=O
Response: 0.0322

Hey, just so you know, these numbers are from PubChem BioAssay.
